- TESTED TARGET: Tie2, immobilized for SPR (human, UniProt Q02763 23-1124, Limits of the immobilized Tie2 are not printed. Taken as the mature extracellular domain (the text says extracellular domain of rhTie2 in the dual SPR experiment), ending at Lys745 as in commercial rh)
- Sequence (Q02763 23-1124): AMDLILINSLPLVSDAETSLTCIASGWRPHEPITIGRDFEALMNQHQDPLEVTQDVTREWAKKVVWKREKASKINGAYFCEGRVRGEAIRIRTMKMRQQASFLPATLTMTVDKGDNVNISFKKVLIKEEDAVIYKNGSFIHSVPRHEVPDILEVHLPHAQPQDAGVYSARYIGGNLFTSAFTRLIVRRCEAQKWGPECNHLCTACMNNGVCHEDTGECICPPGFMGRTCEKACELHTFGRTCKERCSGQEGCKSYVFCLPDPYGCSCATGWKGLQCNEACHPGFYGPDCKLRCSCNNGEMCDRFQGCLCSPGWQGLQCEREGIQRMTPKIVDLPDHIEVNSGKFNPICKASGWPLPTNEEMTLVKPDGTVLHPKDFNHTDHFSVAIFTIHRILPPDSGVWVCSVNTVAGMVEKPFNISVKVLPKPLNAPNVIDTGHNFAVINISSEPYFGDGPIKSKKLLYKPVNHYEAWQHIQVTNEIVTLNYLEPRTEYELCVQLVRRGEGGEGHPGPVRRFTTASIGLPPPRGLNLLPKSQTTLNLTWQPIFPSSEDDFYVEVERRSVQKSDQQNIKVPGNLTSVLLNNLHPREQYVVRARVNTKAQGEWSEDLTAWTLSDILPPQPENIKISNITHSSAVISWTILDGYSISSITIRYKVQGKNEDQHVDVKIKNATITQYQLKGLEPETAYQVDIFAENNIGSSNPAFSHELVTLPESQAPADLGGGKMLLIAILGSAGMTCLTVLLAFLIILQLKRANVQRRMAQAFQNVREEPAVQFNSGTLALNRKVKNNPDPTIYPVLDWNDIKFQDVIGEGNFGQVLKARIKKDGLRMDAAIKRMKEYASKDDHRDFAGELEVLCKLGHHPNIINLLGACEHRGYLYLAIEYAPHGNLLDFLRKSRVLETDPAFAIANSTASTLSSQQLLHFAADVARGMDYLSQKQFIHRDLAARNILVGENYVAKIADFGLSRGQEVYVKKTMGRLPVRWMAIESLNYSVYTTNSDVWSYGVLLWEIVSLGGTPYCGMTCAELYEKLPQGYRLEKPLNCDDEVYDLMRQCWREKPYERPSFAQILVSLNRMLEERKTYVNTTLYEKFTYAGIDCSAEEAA
- MEASUREMENT NOTES: SPR; Tie2 immobilized, Ang2-BD variants as analytes; ProteOn XPR36; steady state fit; as previously described [54]
- REPORTED CONDITIONS: both partners purified
Listed here are binders together with their documented pKd.
Quick note: pKd means taking -log10 of the concentration in moles per liter.

# BINDER, RECORDED VALUE
rows = [
    ("Ang2-BDWT, soluble protein (domain or fragment, UniProt O15123 281-496, looked up, The limits 281-496 are stated for the Ang2-BDWT gene; also called wild-type Ang2 BD; mono-specific Ang2-BDWT; source: Pichia (Multi-Copy Pichia Expression Kit), purified from yeast culture supernatant (HisTrap, Superdex 200)) FRDCAEVFKSGHTTNGIYTLTFPNSTEEIKAYCDMEAGGGGWTIIQRREDGSVDFQRTWKEYKVGFGNPSGEYWLGNEFVSQLTNQQRYVLKIHLKDWEGNEAYSLYEHFYLSSEELNYRIHLKGLTGTAGKISSISQPGNDFSTKDGDNDKCICKCSQMLTGGWWFDACGPSNLNGMYYPQRQNTNKFNGIKWYYWKGSGYSLKATTMMIRPADF", 6.18),
    ("Ang2-BDBC10, soluble protein (designed binder, also called Ang2-BD bi-specific variant; source: Pichia (Multi-Copy Pichia Expression Kit), purified from yeast culture supernatant (HisTrap, Superdex 200)) FRDCAEVFKSGHTTNGIYTLYPGRGDNPDIKAYCDMEAGGGGWTIIQRREDGSVDFQRTWKEYKVGFGNPSGEYWLGNEFVSQLTNQQRYVLKIHLKDWEGNEAYSLYEHFYLSSEELNYRIHLKGLTGTAGKISSISQPGNDFSTKDGDNDKCICKCSQMLTGGWWFDACGPSNLNGMYYPQRQNTNKFNGIKWYYWKGSGYSLKATTMMIRPADF", 6.02),
    ("Ang2-BDBC5, soluble protein (designed binder, also called Ang2-BD bi-specific variant; source: Pichia (Multi-Copy Pichia Expression Kit), purified from yeast culture supernatant (HisTrap, Superdex 200)) FRDCAEVFKSGHTTNGIYTLNTCRGDCLPIKAYCDMEAGGGGWTIIQRREDGSVDFQRTWKEYKVGFGNPSGEYWLGNEFVSQLTNQQRYVLKIHLKDWEGNEAYSLYEHFYLSSEELNYRIHLKGLTGTAGKISSISQPGNDFSTKDGDNDKCICKCSQMLTGGWWFDACGPSNLNGMYYPQRQNTNKFNGIKWYYWKGSGYSLKATTMMIRPADF", 5.87),
]

Note: attention shifts to another entry.
// Ang2-BDBC6, soluble protein (designed binder, also called Ang2-BD bi-specific variant; source: Pichia (Multi-Copy Pichia Expression Kit), purified from yeast culture supernatant (HisTrap, Superdex 200)) FRDCAEVFKSGHTTNGIYTLREGRGDNVDIKAYCDMEAGGGGWTIIQRREDGSVDFQRTWKEYKVGFGNPSGEYWLGNEFVSQLTNQQRYVLKIHLKDWEGNEAYSLYEHFYLSSEELNYRIHLKGLTGTAGKISSISQPGNDFSTKDGDNDKCICKCSQMLTGGWWFDACGPSNLNGMYYPQRQNTNKFNGIKWYYWKGSGYSLKATTMMIRPADF : pKd value = 5.90
